Target of assay: SSTR4 (Homo sapiens)
Sequence (P31391 whole entry): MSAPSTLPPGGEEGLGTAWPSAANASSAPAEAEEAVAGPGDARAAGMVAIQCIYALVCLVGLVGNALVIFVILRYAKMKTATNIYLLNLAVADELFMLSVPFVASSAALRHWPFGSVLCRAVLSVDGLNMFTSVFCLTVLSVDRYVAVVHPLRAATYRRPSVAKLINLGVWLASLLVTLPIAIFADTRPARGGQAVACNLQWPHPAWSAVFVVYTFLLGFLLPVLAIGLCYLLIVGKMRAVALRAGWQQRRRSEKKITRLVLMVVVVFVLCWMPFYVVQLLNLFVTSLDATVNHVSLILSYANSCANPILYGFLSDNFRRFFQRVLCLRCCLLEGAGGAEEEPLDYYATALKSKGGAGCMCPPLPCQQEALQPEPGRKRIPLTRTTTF
Protocol text: SSTR4 I-125 somatostatin competition binding assay (CHO-K1 membranes)
Parameters: host or cells: CHO-K1
Stated conditions: competition with I-125 labeled somatostatin, membranes from CHO-K1 overexpressing SSTR4; read-out: SSTR4 Binding pIC50 (converted)
Record form. Attribute: log10(IC50). Fill in for each entry.
Values below are the log10 of the recorded IC50, with nM as the unit.

// worked examples, log10(IC50) included
Recorded log10(IC50) (molecule Cc1cnc(-c2nc(C(C)c3ccc(F)cc3)c(NCCN3CCCC3)nc2C)o1 (stereo not drawn) ): 1.55

Recorded log10(IC50) (molecule CNC(=O)c1cnc(NCCN2CCCC2)c(C(C)c2ccc(F)cc2)n1 (stereo not drawn) ): 1.89

Could you tell me log10(IC50) for each of these molecules? They are listed below.
1. CC(c1ccc(F)cc1)c1nccnc1NCCN1CCCC1 (stereo not drawn)
2. CNC(=O)c1nc(Cc2ccc(F)cc2)c(N[C@@H]2CCN(C)C[C@H]2C)nc1C (racemic)
3. C[C@H](c1ccc(F)cc1)c1nc(C(=O)N[C@H]2CCOC2)cnc1NCCN1CCCC1
4. Cc1nc(NCCN2CCCC2)c(C(C)c2ccc(F)cc2)nc1C(=O)N1CC[C@H](F)C1 (stereo partly drawn)
5. Cc1nnc([C@@H](C)c2ccccc2)c(N[C@H]2CCN(C)C2)n1 (single isomer, unassigned)

1: 2.18; 2: 2.69; 3: 2.21; 4: 1.56; 5: 2.31
